Hey, just so you know, these numbers are from PubChem BioAssay (NCI).

In this section we review reported growth values for a set of compounds.
Tested on: UO-31 renal
Assay: NCI-60 one-dose screen, 48 h (100 = growth as untreated, 0 = no growth, -100 = all killed)
Conditions: 10 µM
This is part of a sample that, as a whole, favours compounds with a hit. Of some 83,000 tested, about 20% had one in any assay.
Supply the numeric figure in %, leaving out any unit text.

# `COc1cc(-c2cc(/C=C/C(=O)c3ccc(Cl)c(Cl)c3)[nH]n2)cc(OC)c1OC` with UO-31 renal: growth is 54.1

Here `COc1ccc(/C=C2/CN(C(=O)c3ccccc3F)C/C(=C\c3ccc(OC)cc3)C2=O)cc1` was tested on UO-31 renal, and its growth came to 46.1

Query `Cc1c(Cl)cccc1NC(=O)c1sc2nc3c(cc2c1N)C(=O)CCC3` on UO-31 renal; growth returned: 33.3

Record `Cc1ccc(C(=O)Nc2cccc(F)c2)cc1NC(=O)C1(c2ncnc3[nH]ccc23)CC1` ; system UO-31 renal; growth = 51.6

Tested on UO-31 renal, the item `CCCCCCCCN(CCCCCCCC)CCCCCCCCCN1CCCc2cc(OC)ccc21` showed growth equal to 80.4

Entry `O=[N+]([O-])c1cccc(N=Cc2ccc3c(c2)OCO3)c1` ; assay system UO-31 renal; growth recorded at 76.7

Record for `CSc1cc(SC)ncn1` under target or system UO-31 renal: growth reported as 86.7

###

System: OVCAR-8 ovarian
Assay: NCI-60 one-dose screen, 48 h (100 = growth as untreated, 0 = no growth, -100 = all killed)
Details: 10 µM
About 83,000 compounds went through this panel and 20% of them were active in at least one assay; those are over-represented in the sample as a whole.
Measure: growth (%)
Your answer is read as %, so omit the unit and give the number.

smiles_entry=COc1cc2cc3c(nc2cc1OC)CCN3Cc1ccc(NC(=O)c2ccc(Cl)c(C(F)(F)F)c2)cc1 measure=growth quantitative_result=88.6
smiles_entry=O=[N+]([O-])c1ccc(Oc2cccnc2)c([N+](=O)[O-])c1 measure=growth quantitative_result=91.7
smiles_entry=COc1ccc(-n2c(SCc3cc(OC)c(OC)c(OC)c3)nc3ccc(C)cc3c2=O)cc1 measure=growth quantitative_result=84.2

Tested on OVCAR-8 ovarian, the item `CC(C)(Cl)CCC1=C(Cl)C(=O)c2ccccc2C1=O` showed growth equal to 68

Let me check: `CN(C)c1ccc(N=C2C=CC(=O)c3ccccc32)cc1` , system OVCAR-8 ovarian, measured growth is 76.3

###

Test system: NCI-H322M lung
Test: NCI-60 one-dose screen, 48 h
Conditions: 10 µM
About 83,000 compounds went through this panel and 20% of them were active in at least one assay; those are over-represented in the sample as a whole. The source made the active and inactive calls. How the source made its calls: active means growth percent below 10; inactive means the rest.
Would you mind answering with one of these outcomes? Y (active), N (inactive)

molecule=Clc1ccccc1N=Cc1ccc2c(c1)OCO2 target_or_system="NCI-H322M lung" category_label=N
molecule=COC(=O)c1c(-c2ccccc2)csc1NC(=O)c1c(-c2ccccc2)noc1C target_or_system="NCI-H322M lung" category_label=N
molecule="CCCN(CCC)CCC(O)c1cc2c(c3ccccc13)CCCC2 (configuration not stated)" target_or_system="NCI-H322M lung" category_label=N
molecule=O=C1N=NC2=C1c1c3ccccc3c(O)n1CC2 target_or_system="NCI-H322M lung" category_label=N
molecule="O=C1OCC2=C1C(c1cccc(Cl)c1)c1cc3c(cc1N2CCO)OCO3 (configuration not stated)" target_or_system="NCI-H322M lung" category_label=N
molecule=CCOC(=O)C(=Cc1ccc(Br)cc1)C(=O)OCC target_or_system="NCI-H322M lung" category_label=N
molecule=Cc1cc(Cl)nc(N(CCCNc2ccnc3cc(Cl)ccc23)Cc2cccs2)n1 target_or_system="NCI-H322M lung" category_label=N
molecule=Cc1ncc(-c2ccoc2)c(NC2CCCCCC2)n1 target_or_system="NCI-H322M lung" category_label=N

Can you look up the reported call for COc1cc2c(cc1OCCCN1CCN(c3ncnc4ccccc34)CC1)N=CC1CCCN1C2=O (configuration not stated) for me?
Y

Identify the outcome logged in this assay for the molecule shown: `CC(C)=CCc1ccc(O)c(=O)cc1C(C)C`
N

###

System: A549/ATCC NSCLC
Test: NCI-60 one-dose screen, 48 h (100 = growth as untreated, 0 = no growth, -100 = all killed)
Conditions: 10 µM
About 83,000 compounds went through this panel and 20% of them were active in at least one assay; those are over-represented in the sample as a whole.
Binarize growth at 30%; below is class 1, at or above is class 0.

molecule=CCC(=O)N1C/C(=C/c2ccc(Br)cc2)C(=O)/C(=C/c2ccc(Br)cc2)C1 category_label="class 1"
molecule="Nc1ccc2c(c1)C1(CCC2)NC(=O)NC1=O (stereo not drawn)" category_label="class 0"
molecule="O=C(Nc1ccc(Cl)cc1)N1NC(c2ccc(Cl)cc2)C=C1c1ccccc1 (stereo not drawn)" category_label="class 0"
molecule=COc1ccc2c(c1)sc1nc(-c3ccccc3)c(-c3ccsc3)n12 category_label="class 0"
molecule="COc1ccc(C2CC(c3ccc(N(C)C)cc3)=NN2c2ccc(S(N)(=O)=O)cc2)cc1 (stereo not drawn)" category_label="class 1"
molecule=O=[N+]([O-])c1cccc(-c2ncc(-c3ccc(Cl)cc3Cl)[nH]2)c1 category_label="class 0"
molecule=CC/C(C)=C(\C)C(=O)O category_label="class 0"
molecule=O=C1/C(=C\c2cn(C(=O)c3ccc(Cl)cc3)c3ccccc23)c2ccccc2N1C(=O)c1ccc(Cl)cc1 category_label="class 0"

Input `COc1ccc(-n2c(SCc3cc(OC)c(OC)c(OC)c3)nc3ccc(C)cc3c2=O)cc1` ; condition: growth strictly below 30%. Does it hold?
class 0

Does this molecule meet the criterion growth < 30%? `CN(C)N=Nc1nn(C(=O)Nc2ccc(Cc3ccccc3)cc2)c2ccccc12`
class 0

###

System: SF-539 CNS
Assay: NCI-60 one-dose screen, 48 h
Details: 10 µM
About 83,000 compounds went through this panel and 20% of them were active in at least one assay; those are over-represented in the sample as a whole. Activity calls are given as the source filed them. Rule for the calls: active = growth percent below 10; inactive = the rest.
Your reply should match one of these outcome classes. active, inactive

Solved cases below.
compound="COc1cc(/C=C2\\CCCC3=C2N=C2SC=NN2C3c2cc(OC)c(OC)c(OC)c2)cc(OC)c1OC (centres undefined)" target_or_system="SF-539 CNS" category_label=active
compound=CCN(CCCCCCN1CC(=O)N(CCCCCCN(CC)Cc2ccccc2OC)CC1=O)Cc1ccccc1OC target_or_system="SF-539 CNS" category_label=inactive

What is the recorded call for this compound in the test? CCN(CC)CCC(CNc1c(C)cnc2cc(Cl)ccc12)c1ccc(Cl)c(Cl)c1 (centres undefined)
inactive

Hi, do you know how `COc1ccc(-c2nn(-c3cccc(NC(=O)c4cc(C(F)(F)F)cc(C(F)(F)F)c4)c3)cc2-c2ccncc2)cc1Cl` came out in this test?
inactive

###

System: MCF7 breast
Assay: NCI-60 one-dose screen, 48 h
Conditions: 10 µM
This is part of a sample that, as a whole, favours compounds with a hit. Of some 83,000 tested, about 20% had one in any assay. Activity calls are given as the source filed them. How the source made its calls: active means growth percent below 10; inactive means the rest.
Thanks in advance; please answer with one of these: active, inactive

molecule="O=C1OCC2=C1C(c1cccc(Cl)c1)c1cc3c(cc1N2CCO)OCCO3 (stereo not drawn)" target_or_system="MCF7 breast" category_label=inactive
molecule=COc1ccc([N+](=O)[O-])c(C(=O)O)c1 target_or_system="MCF7 breast" category_label=inactive
molecule=CSc1nn(-c2ccccc2)c2ncnc(Oc3ccccc3)c12 target_or_system="MCF7 breast" category_label=inactive
molecule=O=C(Nc1cccc(-n2cc(-c3ccncc3)c(-c3ccc(O)c(Cl)c3)n2)c1)c1ccc(N2CCOCC2)c(C(F)(F)F)c1 target_or_system="MCF7 breast" category_label=inactive
molecule=COc1ccccc1/C=C/C(=O)c1ccccc1 target_or_system="MCF7 breast" category_label=inactive

Look up the recorded call for `CN(C)CCN1C(=O)c2cccc3c(-c4ccc5ncn(C6CCCCC6)c5c4)ccc(c23)C1=O` in this test.
inactive

GET /call?item= `COc1cc(-c2nnc(-c3c(-c4ccc(F)cc4)nc4ccccn34)o2)cc(OC)c1OC` returns the recorded outcome of this test.
inactive

Recorded test call requested for `O=C(Nc1ccncc1)C(=O)c1cn(S(=O)(=O)c2cccc(Cl)c2)c2ccccc12`
inactive

Per the assay record, what outcome was assigned to `COc1ccc(-c2cc(-c3ccc(N(C)C)cc3)c(C#N)c(N3CCCC3)n2)cc1` ?
inactive

What did the test return for `O=C(Nc1cccc(Cl)c1)Nc1nccs1` ?
inactive

Just curious, what result did `COc1cc(Nc2ccnc(NCCCNc3ccnc4cc(Cl)ccc34)n2)cc(OC)c1` get here?
active

What call does the record list for O=C(O)C(SC(C(=O)O)c1ccccc1)c1ccccc1 (stereo not drawn) ?
inactive

Lab log entry: `CN(CCc1ccccn1)c1ccccc1` — outcome as called in the assay?
inactive

Just curious, what result did `COc1ccc2c(c1OC)O/C(=C\c1ncc([N+](=O)[O-])n1C)C2=O` get here?
inactive
